Overview of reported folding enthalpy across a group of sequences:
test method notes: folding enthalpy; higher = less favourable; fluorescence melt of hairpins on a sequencing array, two-state fit
particulars: sodium 0.088 M
Return type: number; implicit unit kJ/mol.

Past entries and their recorded results:
residue codes	readout value
GTGATGCGAAAGCACAC (((.(((....))))))	-108
GCTGACGGAAACGCCAAC (.((.((....)).)).)	-59
GCGCAGCGAAAGCCTCGC (((..((....))..)))	-34.6
GTTACCGAAAGGTGGAAC ((((((....)))..)))	-42.5
GCGCTGCGAAAGCACTGC ((..(((....)))..))	-70.2
GATCAGGGTCCTGATC ((((((....))))))	-159
GTGCGACGAAAGTCCAC (((.(((....))))))	-123
GGCAGGGGAAACCCTGTC (.(((((....))))).)	-125
GATCAGCAGACTGATC ((((((....))))))	-178
GGTGGAGGAAACTCTACC (((.(((....))).)))	-150

Param item = GAGTTGGCGAAAGCCCTC (((..(((....)))))) ; retrieve measured folding enthalpy. -46.6

Queued: GATCTCCGCCGAGATC ((((((....)))))) -207

Next up: GCTTTACGAAAGTACAGC (((.(((....))).))) -120

Queued: GATCCCTGGCGGGATC ((((((....)))))) -156

Again, but for GGACCCGGAAACGGACCC ((..(((....)))..)) -57.7

Ok, now GCTACGCGAAAGCGACGC ((..(((....)))..)) -63.1
